Conditions: 298.15 K; 101 kPa; Liquid; Vibrating tube method
Property Measured: mass density (kg/m3)
One number for each entry, in kg/m3.

See these solved cases before continuing.
{"columns": ["Compound", "Property Measured", "Number"],
 "data": [
  ["NCCO [2-aminoethan-1-ol]", "mass density", 1012.12],
  ["CCCCCCC [heptane]", "mass density", 679.537],
  ["CN(CCO)CCO [N-methyldiethanolamine]", "mass density", 1036.81]
]}

*Q* Indicate the recorded mass density value for this compound: Cc1ccccc1 [toluene]
*A* 862.222
